Data provenance: the supplement of paper PMC13207355

Test system: E31 (patient-derived glioblastoma stem cells of proneural subtype)
Assay: phenotypic distance (Euclidean, principal components) from DMSO controls (arbitrary units); higher = stronger morphological change
Conditions: 3000 nM; exposure time: 72 h
Structures can show the parent of a compound that is named as a salt.
parameter-measured: phenotypic distance
The answer should be written as a number, with no unit following it.

See these solved cases before continuing.
[
  {
    "molecule": "COc1cc(OC)c(C(=O)CCCN2CCCC2)c(OC)c1 [Buflomedil hydrochloride]",
    "phenotypic distance": 0.55
  },
  {
    "molecule": "COc1cc([C@@H]2c3cc4c(cc3[C@@H](O[C@@H]3O[C@@H]5CO[C@@H](c6cccs6)O[C@H]5[C@H](O)[C@H]3O)[C@H]3COC(=O)[C@H]23)OCO4)cc(OC)c1O [Teniposide]",
    "phenotypic distance": 3.37
  }
]

// switching to the query molecule
Query string: Can you share its phenotypic distance? I mean this molecule: CCC1=C[C@@H]2CN(C1)Cc1c([nH]c3ccccc13)[C@@](C(=O)OC)(c1cc3c(cc1OC)N(C)[C@H]1[C@@](O)(C(=O)OC)[C@H](OC(C)=O)[C@]4(CC)C=CCN5CC[C@]31[C@@H]54)C2 [Vinorelbine Tartrate]
Result string: 5.73

* * *

Tested on: FT3469 (normal neural stem cell line)
Experiment: surviving fraction (nuclei count normalised to DMSO); higher = more cells surviving (less toxic)
Settings: 4.1 nM; exposure time: 72 h
Structures can show the parent of a compound that is named as a salt.
Would you mind labelling by surviving fraction? At or over 0.8 is T, under is F.

Solved cases below.
[
  {
    "molecule": "Cc1ccc(NC(=O)c2ccc3c(c2)OCCO3)cc1NC(=O)c1ccc2nc(OCCN3CCCC3)ccc2c1",
    "group": "F"
  },
  {
    "molecule": "CC(C)C[C@H]1C(=O)N2CCC[C@H]2[C@]2(O)O[C@](NC(=O)[C@@H]3C=C4c5cccc6[nH]c(Br)c(c56)C[C@H]4N(C)C3)(C(C)C)C(=O)N12 [Bromocryptine mesylate]",
    "group": "F"
  }
]

Query string: Is surviving fraction at least 0.8? Consider `Cn1ncnc1[C@H]1c2n[nH]c(=O)c3cc(F)cc(c23)N[C@@H]1c1ccc(F)cc1`
Result string: F

Query string: Let us now turn to `OC[C@H]1O[C@@H](Oc2ccc(O)cc2)[C@H](O)[C@@H](O)[C@@H]1O`
Result string: T

Query string: Let us now turn to `CC(C)CC(=O)N[C@H](C(=O)N[C@H](C(=O)N[C@@H](CC(C)C)[C@@H](O)CC(=O)N[C@@H](C)C(=O)N[C@@H](CC(C)C)[C@@H](O)CC(=O)O)C(C)C)C(C)C`
Result string: T

Query string: Let us now turn to CCCCCCCCCCCCCCCC[N+](C)(C)CCN(Cc1ccc(OC)cc1)c1ncccn1 [Thonzonium bromide]
Result string: T

* * *

Recorded surviving fraction for the following compounds
Test system: E31
Assay: surviving fraction (nuclei count normalised to DMSO); higher = more cells surviving (less toxic)
Conditions: 4.1 nM; exposure time: 72 h
Structures can show the parent of a compound that is named as a salt.
The answer should be written as a number, with no unit following it.

See these solved cases before continuing.
[
  {
    "compound": "CN(C)C(=O)Oc1ccc[n+](C)c1 [Pyridostigmine iodide]",
    "surviving fraction": 0.967
  },
  {
    "compound": "O=C1CCc2cc(OCCCCc3nnnn3C3CCCCC3)ccc2N1",
    "surviving fraction": 0.919
  },
  {
    "compound": "CN(C)CCN(Cc1ccc(Cl)cc1)c1ccccn1 [Chloropyramine hydrochloride]",
    "surviving fraction": 0.968
  }
]

Query string: Can you share its surviving fraction? I mean this compound: `Oc1ccc(OCc2ccccc2)cc1`
Result string: 1.17

Query string: Let us now turn to `COC(=O)Nc1nc2cc(C(=O)c3ccccc3)ccc2[nH]1`
Result string: 0.817
